# Measured on: T1, biotinylated goat anti-human kappa light chain
# T1 construct: Positive control of the ELISA
# Assay protocol: ELISA, positive control; note: test concentration or dose not given here
In this section, each of the binders is paired with its reported optical density.
Answer in OD, number only, no unit symbol.

374_F09 (antibody, V domains shown, VH and VL only) VH: EVQLLESGGGLVQPGGSLRLSCAASGFTFSSYGMNWVRQAPGKGLEWVSSINYNSGYTSYADSVKGRFTISRDNSKNTLYLQMNSLRAEDTAVYYCARSATWHDTHLDYWGQGTLVTVSS VL: DIQMTQSPSSLSASVGDRVTITCRASQSISSYVNWYQQKPGKAPKLLIYAATSRASGVPSRFSGSGSGTDFTLTISSLQPEDFATYYCQQSYSTPLTFGGGTKVEIK: 3.14

Please examine the following record next.
The binder listed as 375_G10 (antibody, V domains shown, VH and VL only) VH: EVQLLESGGGLVQPGGSLRLSCAASGFTFSSYGMNWVRQAPGKGLEWVSSINYNGGYKSYADSVKGRFTISRDNSKNTLYLQMNSLRAEDTAVYYCARSATWHDTHLDYWGQGTLVTVSS VL: DIQMTQSPSSLSASVGDRVTITCRASQSIVTYLNWYQQKPGKAPKLVIYAATSRHSGVPSRFSGSGSGTDFTLTISSLQPEDFATYYCQQSYDTPLTFGGGTKVEIK shows optical density equal to 3.3

Sourced from patent US20210380703A1
